molecular target: Bromodomain-containing protein 4 (Homo sapiens, UniProt O60885); assay: Inhibition of BRD4 (unknown origin) incubated for 120 mins by TR-FRET assay
measured_property: IC50 (nM)
Value expressed in nM; do not type the unit.

Prompt: Output IC50 of "Cc1sc2c(c1C)C(c1ccc(Cl)cc1)=N[C@@H](CC(=O)N1CCC(CCNC(=O)/C=C/c3cccnc3)CC1)c1nnc(C)n1-2"
Response: 180

Prompt: Output IC50 of "Cc1sc2c(c1C)C(c1ccc(Cl)cc1)=N[C@@H](CC(=O)N1CCC(CNC(=O)/C=C/c3cccnc3)CC1)c1nnc(C)n1-2"
Response: 141

Prompt: Output IC50 of "Cc1sc2c(c1C)C(c1ccc(Cl)cc1)=N[C@@H](CC(=O)NCc1ccc(CNC(=O)/C=C/c3cccnc3)cc1)c1nnc(C)n1-2"
Response: 129
